- system: human prostanoid TP receptor (Homo sapiens, UniProt P21731)
- Construct: expressed in transfected cells
- Sequence (P21731 whole entry): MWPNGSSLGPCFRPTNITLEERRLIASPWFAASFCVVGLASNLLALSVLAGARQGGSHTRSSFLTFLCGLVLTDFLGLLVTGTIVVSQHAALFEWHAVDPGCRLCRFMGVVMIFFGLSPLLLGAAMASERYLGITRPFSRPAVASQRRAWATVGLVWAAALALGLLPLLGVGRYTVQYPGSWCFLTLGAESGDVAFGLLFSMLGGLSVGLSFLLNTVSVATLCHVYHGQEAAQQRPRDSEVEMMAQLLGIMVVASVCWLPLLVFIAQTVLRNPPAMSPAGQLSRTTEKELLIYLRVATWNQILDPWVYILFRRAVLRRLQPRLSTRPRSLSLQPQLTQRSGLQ
- protocolNotes: FLIPR Ca2+ signaling antagonist assay, TP receptor stable cell line
- Format: cell-based
- experimentalParameters: human recombinant TP in HEK-293 EBNA cells; standard agonist U-46619; NA = no antagonism or Kb>=10,000 nM
reportedProperty: Kb (nM)
Numbers only here, please. The scale is nM.

CC(C)Cn1ncc2cc(OC(F)(F)F)cc(Cn3cnc4cc(C(=O)O)ccc43)c21 = 30
CC(C)Cn1ncc2cc(Cl)cc(Cn3nc(N)c4cc(C(=O)O)ccc43)c21 = 1300
CNc1nn(Cc2cc(Cl)cc3cnn(CC(C)C)c23)c2ccc(C(=O)O)cc12 = 300

Enquiry: Name the recorded Kb of the compound listed here: CC(C)n1ncc2cc(Br)cc(Cn3ncc4cc(C(=O)O)ccc43)c21
Return: 1400
